System: UniProt:P35372 | Read-out: pKi
Sequence (P35372 whole entry): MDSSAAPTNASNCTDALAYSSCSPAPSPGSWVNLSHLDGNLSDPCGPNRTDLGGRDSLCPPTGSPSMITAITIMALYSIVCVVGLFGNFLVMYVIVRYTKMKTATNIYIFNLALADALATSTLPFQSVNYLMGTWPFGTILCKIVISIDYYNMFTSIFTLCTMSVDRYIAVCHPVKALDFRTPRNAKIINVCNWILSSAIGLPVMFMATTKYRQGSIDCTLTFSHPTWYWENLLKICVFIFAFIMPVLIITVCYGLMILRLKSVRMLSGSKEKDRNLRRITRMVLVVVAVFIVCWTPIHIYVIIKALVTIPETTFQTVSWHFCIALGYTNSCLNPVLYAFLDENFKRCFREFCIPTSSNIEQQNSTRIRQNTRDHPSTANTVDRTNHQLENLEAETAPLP
pKi: −log10 of the molar value.

CCN(C)C(=O)c1ccc(C2(c3cccc(O)c3)CCCN(CC3CC3)C2)cc1 (stereo unspecified)    7.28
CCN(CC)C(=O)c1ccc(C2(c3cccc(O)c3)CCCN(Cc3nccs3)C2)cc1 (stereo unspecified)    < 6.05
CCCC(C)CN1CCC(c2ccc(C(=O)N(C)C)cc2)(c2cccc(O)c2)CC1 (stereo unspecified)    < 6.05
C=CCN1CCC(c2ccc(C(=O)N(CC)CC)cc2)(c2cccc(O)c2)CC1    < 6.05
CCN(CC)C(=O)c1ccc(C2(c3cccc(O)c3)CCN(CC3CC3)CC2)cc1    < 6.05

Now let's try a different one.
Q. Recorded pKi for CCN(CC)C(=O)c1ccc(C2(c3cccc(O)c3)CCCN(CC(F)(F)F)C2)cc1 (stereo unspecified) , please?
A. < 6.05

Value source: ChEMBL document CHEMBL1153251
